experiment: amyloid nucleation score (Sup35N fusion, yeast selection) (log enrichment); library NNK2; higher = more nucleation; inactive = no reads after selection;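 note: zero at mode of non-aggregating sequences after 7 days selection at 30°C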
measured-quantity: amyloid nucleation score

{"sequence-text": "CRAHMCLQFNYWTRVMNTPT", "meas-value": 6.81}
{"sequence-text": "INRKGRRI", "meas-value": 0.007}
{"sequence-text": "VRFTAWICVYRYKEGWWRSL", "meas-value": -0.417}
{"sequence-text": "KCTTVIYYMCIGLRH", "meas-value": 4.98}
{"sequence-text": "GGSVMQILGWFLQAV", "meas-value": 0.683}
{"sequence-text": "CEEHDFMTSFICIAWAWKWL", "meas-value": -0.66}
{"sequence-text": "GYIYVNSGYRFTKLCMVFC", "meas-value": 0.058}
{"sequence-text": "KLPYVEIPVVLTSLSYLGV", "meas-value": "inactive"}
{"sequence-text": "AIFDTIYC", "meas-value": -0.541}
{"sequence-text": "GKINDSGTSYSEKRSGPCRL", "meas-value": -0.874}
{"sequence-text": "NRKLWVYIFSELSDDGLQFR", "meas-value": "inactive"}
{"sequence-text": "FASRSCEFCEREY", "meas-value": 3.2}
{"sequence-text": "VFVWIGLGWVTSLLSLYTNG", "meas-value": "inactive"}
{"sequence-text": "IRWMTHWKV", "meas-value": 0.834}
{"sequence-text": "NCPSTDFPELMSMQSYCLLC", "meas-value": -1.71}
{"sequence-text": "GCYHVMVRNNKTGVLVMRSA", "meas-value": 0.545}
{"sequence-text": "HFNVPCNCSNCSYGTILSIT", "meas-value": -0.305}

====

experiment: amyloid nucleation score (Sup35N fusion, yeast selection) (log enrichment); library NNK2; higher = more nucleation; inactive = no reads after selection
Listing of entries alongside the reported amyloid nucleation score.

{"sequence-text": "VIMSGHSNRHWRSGLERMAG", "amyloid nucleation score": 0.823}
{"sequence-text": "VSNKDVLSQDMAKLIWW", "amyloid nucleation score": 0.81}
{"sequence-text": "CLLYDQGFWQAGVLNVVAAR", "amyloid nucleation score": -0.085}
{"sequence-text": "LVESGQGDQSAPNRTDWFNG", "amyloid nucleation score": -0.437}
{"sequence-text": "LDIYLLDMLWPLCAVLSNIG", "amyloid nucleation score": -0.541}
{"sequence-text": "LWTKFDSPSRVCHKSQLSKA", "amyloid nucleation score": 0.192}
{"sequence-text": "WVMAVVDHVLSWFYWRLCLF", "amyloid nucleation score": 3.26}
{"sequence-text": "DLGHTYTSMYGFLTPSRDVD", "amyloid nucleation score": -0.052}
{"sequence-text": "DGASIFSSAFIVGSGTLKQM", "amyloid nucleation score": -0.911}
{"sequence-text": "LRYSTSHSKNRRSDALNIKG", "amyloid nucleation score": -0.739}
{"sequence-text": "SEWDLRVLTWYMWLFVPLVQ", "amyloid nucleation score": -0.477}
{"sequence-text": "RSVWNASAFVAIFFRVRSQA", "amyloid nucleation score": 0.547}
{"sequence-text": "AFCWTLWQYLGFS", "amyloid nucleation score": 1.35}
{"sequence-text": "MWWFYGSILHRGDRT", "amyloid nucleation score": 1.58}

Provenance of the data: the supplement of paper PMC12042874
